# Test system: SNB-75
# Assay text: NCI tumour cell line growth inhibition, 48 h
Activity calls are given as the source filed them. No stated cut-off is given here; in the data, active = GI50 up to about 1.1 µM and inactive = higher.
Recorded GI50 by entry

Compound: CN(C)CC(/C(Cc1ccccc1)=N\NC(=O)c1ccncc1)c1ccccc1 (centres undefined)
GI50: 36.1 µM (inactive)
--
Compound: CCCCCCCCCCCC(=O)OCC(C[As](=O)(O)O)OC(=O)CCCCCCCCCCC (centres undefined)
GI50: 6.95 µM (inactive)
--
Compound: COC(=O)Cc1c([C@H]2[C@H](CC(=O)OC)c3ccccc3N2C(=O)C(F)(F)F)[nH]c2ccccc12
GI50: 29.2 µM (inactive)
--
Compound: O=C(CC1=Nc2nnc(-c3nnc4n3C(=O)C(CC(=O)C3CC3)=N4)n2C1=O)C1CC1
GI50: > 100 µM (inactive)
--
Compound: COC(=O)[C@]12CC[C@H]3CC[C@H]([C@H]31)[C@H](c1ccccc1)N2
GI50: 26.9 µM (inactive)
--
Compound: COc1cc(CO)c(CC(=O)NCCCc2ccccc2)cc1OC
GI50: > 100 µM (inactive)
--
Compound: C=C[C@H]1CN2CCc3c([nH]c4c([C@@H]5CCCN5C)c(O)ccc34)[C@@H]2C[C@@H]1C[C@H]1c2[nH]c3ccccc3c2CCN1C
GI50: 1.22 µM (inactive)
--
Compound: Cc1ccc(N2Cc3c(ccc4ccccc34)OP2(=O)Oc2ccc(Cl)c(C)c2)cc1 (centres undefined)
GI50: > 100 µM (inactive)
--
Compound: O=S(=O)(O)c1ccc(O)c(/N=N/c2c(O)ccc3ccccc23)c1
GI50: > 100 µM (inactive)
--
Compound: Fc1ccc(NC(=S)SCc2ccc3c(c2)OCO3)cc1F
GI50: 20.6 µM (inactive)
--
Compound: CCN(CCO)C(=O)C1(c2ccccc2)CCCCC1
GI50: > 10 µM (inactive)
--
Compound: Cc1c(/C=N/N=C/c2[nH]c(C(=O)OC(C)(C)C)c(C)c2C)[nH]c(C(=O)OC(C)(C)C)c1C
GI50: 33 µM (inactive)
--
Compound: Cc1ccc([N+](=O)[O-])c2c(NCCC[N+](C)(C)[O-])ccnc12
GI50: 55.7 µM (inactive)
--
Compound: CCOC(=O)N1CCC(N[C@@H]2c3cc4c(cc3[C@@H](c3cc(OC)c(O)c(OC)c3)[C@H]3C(=O)OC[C@@H]32)OCO4)CC1
GI50: 2.18 µM (inactive)
--
Compound: C/C(=N\NS(=O)(=O)c1ccc(C)cc1)c1ccc[n+]([O-])n1
GI50: 37.9 µM (inactive)
--
Compound: CC(C)(Oc1ccccc1)C(=O)Sc1c(-c2ccccc2)c(=O)n(-c2ccccc2)c(=S)n1-c1ccccc1
GI50: > 100 µM (inactive)
--
Compound: COc1cc2ccc1OCc1cccc(n1)COc1ccc(cc1OC)/C=N\c1ccc(cc1)/N=C\2
GI50: > 100 µM (inactive)
--
Compound: O=C(N/N=C1\C(=O)Nc2ccc(Br)cc21)/C(O)=C/C(=O)c1ccc(Cl)cc1
GI50: 43.8 µM (inactive)
--
Compound: CCCOP1(=O)C=C(O)C(Cl)=C(C)C1 (centres undefined)
GI50: > 100 µM (inactive)

* * *

# System: SW-620
# Assay text: NCI tumour cell line growth inhibition, 48 h
Active and inactive are the calls of the source. Rule as the data show it: active = GI50 up to about 1.1 µM and inactive = higher.
Recorded GI50 by entry
Observation type: GI50

Compound: CCCOP1(=O)C=C(O)C(Cl)=C(C)C1 (stereo unspecified)
Observation type: GI50
Experimental result: > 100 µM (inactive)

Compound: C/C(=N\O)c1ccc2cc(Br)c3ccccc3c2c1
Observation type: GI50
Experimental result: 23.1 µM (inactive)

Compound: Clc1ccc2c(c1)CC1C[N+]3=C(CCCC3)C1=C2 (stereo unspecified)
Observation type: GI50
Experimental result: 47.9 µM (inactive)

Compound: CC1=NC(=Cc2cccc(Cl)c2)C(=O)N1n1c(-c2ccccc2)nc2ccccc2c1=O
Observation type: GI50
Experimental result: 55 µM (inactive)

Compound: C/C(=N\NC(=O)c1cccnc1)c1cccc(/C(C)=N/NC(=O)c2cccnc2)n1
Observation type: GI50
Experimental result: 2.78 µM (inactive)

Compound: CC1=NC(=O)C(C)(c2ccccc2)N1CCc1ccccc1 (stereo unspecified)
Observation type: GI50
Experimental result: 61.8 µM (inactive)

* * *

Recorded GI50 by entry
# Test system: SN12C
# Assay text: NCI tumour cell line growth inhibition, 48 h
Calls of active or inactive are those of the source. Rule as the data show it: active = GI50 up to about 1.1 µM and inactive = higher.
Observation type: GI50

Compound: O=C1CCC2COc3ccc(O)c1c32 (stereo not drawn)
Assayed target: SN12C
Observation type: GI50
Experimental result: > 100 µM (inactive)

Compound: COc1ccc(C2S/C(=C\c3ccccc3O)C(=O)N2NC(=O)Cc2ccccc2)cc1 (stereo not drawn)
Assayed target: SN12C
Observation type: GI50
Experimental result: > 100 µM (inactive)

Compound: COc1ccc(C2NC3=C(CCCC3)N2)cc1
Assayed target: SN12C
Observation type: GI50
Experimental result: > 100 µM (inactive)

Compound: O=C(/C=C/c1ccccc1O)c1ccc([N+](=O)[O-])cc1
Assayed target: SN12C
Observation type: GI50
Experimental result: 15.5 µM (inactive)

Compound: COc1ccc(OCC(C)(C)O)cc1
Assayed target: SN12C
Observation type: GI50
Experimental result: > 100 µM (inactive)

Compound: O=C1CCC(=O)C(C(=O)CCC(=O)Nc2cccc(Cl)c2)C1 (stereo not drawn)
Assayed target: SN12C
Observation type: GI50
Experimental result: > 100 µM (inactive)

Compound: O=c1cc(N2CCOCC2)[nH]c(=O)n1-c1cccc(Cl)c1
Assayed target: SN12C
Observation type: GI50
Experimental result: > 100 µM (inactive)

Compound: O=C(O)CC(Cc1ccccc1Cl)C(=O)O (stereo not drawn)
Assayed target: SN12C
Observation type: GI50
Experimental result: > 100 µM (inactive)

Compound: COc1cc(NCCC(=O)O)c2ncccc2c1
Assayed target: SN12C
Observation type: GI50
Experimental result: > 100 µM (inactive)

Compound: CCCCCCCCCCCC(=O)OCC(C[As](=O)(O)O)OC(=O)CCCCCCCCCCC (stereo not drawn)
Assayed target: SN12C
Observation type: GI50
Experimental result: 2.94 µM (inactive)

Compound: NC(C(=O)O)c1ccc(C(=O)O)cc1 (stereo not drawn)
Assayed target: SN12C
Observation type: GI50
Experimental result: > 100 µM (inactive)

Compound: CNc1nc(C(N)=O)c(N)s1
Assayed target: SN12C
Observation type: GI50
Experimental result: > 100 µM (inactive)

Compound: COc1ccc(/C=N/NC(=O)CSc2nc(-c3ccccc3)c(-c3ccccc3)[nH]2)cc1OC
Assayed target: SN12C
Observation type: GI50
Experimental result: 30.1 µM (inactive)

Compound: O=C1Cc2ccccc2N1/N=C\c1ccc(O)cc1
Assayed target: SN12C
Observation type: GI50
Experimental result: > 100 µM (inactive)

Compound: COc1cc(C2c3cc4c(cc3OC(NNC(N)=O)C2C)OCO4)cc(OC)c1OC (stereo not drawn)
Assayed target: SN12C
Observation type: GI50
Experimental result: 0.404 µM (active)

Compound: CC1=C(C)C2(C#N)C(=O)N3C(=NC(c4ccco4)NC3c3ccco3)C2(C#N)C(c2ccco2)N1 (stereo not drawn)
Assayed target: SN12C
Observation type: GI50
Experimental result: > 100 µM (inactive)

Compound: Cc1cnc2nc(-c3ccc4ccccc4c3)cc(O)c2c1
Assayed target: SN12C
Observation type: GI50
Experimental result: 0.966 µM (active)

Compound: CCCOC1OC(CS(=O)(=O)O)C(O)C(O)C1O (stereo not drawn)
Assayed target: SN12C
Observation type: GI50
Experimental result: > 100 µM (inactive)

Compound: Cc1cc(-c2nc3ccccc3s2)ccc1NC(=O)[C@@H](N)CCCCN
Assayed target: SN12C
Observation type: GI50
Experimental result: 16.8 µM (inactive)

Compound: CCC1=CCN(c2ccc(C)cc2)OC1c1ccc(OC)cc1 (stereo not drawn)
Assayed target: SN12C
Observation type: GI50
Experimental result: > 100 µM (inactive)

Compound: O=C1N(C2CCCCC2)CC12CCCCC2
Assayed target: SN12C
Observation type: GI50
Experimental result: > 100 µM (inactive)

Compound: C/C(=N\O)c1ccc2cc(Br)c3ccccc3c2c1
Assayed target: SN12C
Observation type: GI50
Experimental result: 14.8 µM (inactive)

Compound: S=C(/N=c1\sc(Nc2ccc(Cl)cc2)nc2sc3c(c12)CCN(N1CCc2c(sc4nc(Nc5ccc(Cl)cc5)s/c(=N\C(=S)Nc5ccc(Cl)cc5)c24)C1)C3)Nc1ccc(Cl)cc1
Assayed target: SN12C
Observation type: GI50
Experimental result: 19.2 µM (inactive)

* * *

Recorded GI50 by entry
# System: MCF7
# Assay text: NCI tumour cell line growth inhibition, 48 h
Calls of active or inactive are those of the source. No stated cut-off is given here; in the data, active = GI50 up to about 1.1 µM and inactive = higher.

Molecule: Cc1ccc(/C=C2\NC(=S)N(CN3CCOCC3)C2=O)cc1
GI50: 66.5 µM (inactive)

Molecule: COc1c2c(nc3ccccc13)-c1cc3c(c(=O)n1C2)COC(=O)C3(O)CC(=O)N1CCOCC1 (centres undefined)
GI50: 1.06 µM (active)

Molecule: COc1ccc([C@@]23CCC(=O)C[C@@H]2N(C)CC3)cc1OC
GI50: > 100 µM (inactive)

Molecule: CC(C)=CCN1c2ccc(Cl)cc2NC(=O)CC1C (centres undefined)
GI50: 21.4 µM (inactive)

Molecule: S=C(Cc1ccc2c(c1)Sc1ccccc1O2)N1CCOCC1
GI50: 36.7 µM (inactive)

Molecule: O=c1[nH]nc(-c2ccccc2)n1/N=C/c1ccccc1Cl
GI50: 31.8 µM (inactive)

Molecule: O=C(NNS(=O)(=O)c1ccccc1)c1cccnc1
GI50: > 100 µM (inactive)

Molecule: CC[C@H]1C=CCC[C@@]2(C[C@@H]3CC[C@@H]4[C@H](C(=O)OCCCCCCCCCCCCCCCC(=O)N(CCCN)CCCCN)[C@]5(CCC[C@@H](C)O5)NC(=[N+]34)N2)O1
GI50: 0.0684 µM (active)

Molecule: C[C@H]1CCC/C=C/[C@@H]2C[C@H](OC3OC(CO)C(O)C(O)C3O)C[C@H]2[C@H](O)/C=C/C(=O)O1 (some centres undefined)
GI50: 62.4 µM (inactive)
